For each record, write down the corresponding MDA (nmol/mgprot).
System: hyperlipidemia rats
Assay: Liver tissue homogenate biochemical indicators in high-fat diet hyperlipidemia rats
Assay type: in vivo, SD rats
Conditions: liver tissue, 20 mg/(kg d) by gastric gavage, 4 weeks, x ± s, n = 9
One number for each entry, in nmol/mgprot.

COc1cc2c3c(c1OC)-c1ccccc1CC3N(C(=O)c1ccccc1)CC2 (stereo not shown)	0.94
CCC(C)(C)C(=O)O[C@H]1C[C@@H](C)C=C2C=C[C@H](C)[C@H](CC[C@@H]3C[C@@H](O)CC(=O)O3)[C@H]21 [Simvastatin, simvastatin, reference compound]	0.84
COc1cc2c3c(c1OC)-c1ccccc1CC3N(C(C)=O)CC2 (stereo not shown)	0.98

Field: next compound
Query: May I ask what MDA (nmol/mgprot) has been recorded for COc1cc2c3c(c1OC)-c1ccccc1C[C@H]3N(C)CC2 ?
Reply: 0.92
